Quick list: pIC50 per entry.
Target Or System: Polyunsaturated fatty acid 5-lipoxygenase (Homo sapiens)
Sequence (P09917 whole entry): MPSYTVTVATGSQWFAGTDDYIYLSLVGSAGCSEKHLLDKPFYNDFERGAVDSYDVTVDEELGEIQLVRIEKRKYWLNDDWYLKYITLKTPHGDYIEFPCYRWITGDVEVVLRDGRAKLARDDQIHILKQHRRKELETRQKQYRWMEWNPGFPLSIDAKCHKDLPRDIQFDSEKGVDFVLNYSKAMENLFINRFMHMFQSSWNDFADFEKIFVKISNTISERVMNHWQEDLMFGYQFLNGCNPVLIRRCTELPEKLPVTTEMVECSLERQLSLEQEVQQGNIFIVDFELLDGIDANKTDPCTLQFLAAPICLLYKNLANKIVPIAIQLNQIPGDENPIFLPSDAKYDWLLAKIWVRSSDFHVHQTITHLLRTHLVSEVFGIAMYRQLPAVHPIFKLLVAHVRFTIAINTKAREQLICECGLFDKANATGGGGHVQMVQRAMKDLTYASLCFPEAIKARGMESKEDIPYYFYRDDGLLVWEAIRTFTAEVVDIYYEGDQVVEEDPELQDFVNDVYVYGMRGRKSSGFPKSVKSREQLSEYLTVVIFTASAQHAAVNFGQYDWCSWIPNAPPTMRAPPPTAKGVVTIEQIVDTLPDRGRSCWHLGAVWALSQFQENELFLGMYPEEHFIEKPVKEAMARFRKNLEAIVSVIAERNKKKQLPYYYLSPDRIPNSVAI
Assay: Inhibition of 5-lipoxygenase in human neutrophils
pIC50: −log10 of the molar value.

| Smiles Structure | Inequality Operator | pIC50 |
| --- | --- | --- |
| Cc1ccccc1CCn1cc(-c2ccc(-c3ccccc3COc3cccc4ccccc34)cc2)nn1 | < | 4.52 |
| O=Cc1ccc(-c2c(Cc3ccccc3)nnn2CSc2ccccc2)cc1 | = | 5.22 |
| Oc1cccc(-c2ccc(-c3cn(CSc4ccccc4)nn3)cc2)c1 | = | 6.40 |
| O=C(O)c1ccc(S(=O)(=O)n2cc(-c3ccc(-c4ccccc4COc4cccc5ccccc45)cc3)nn2)cc1 | = | 6.22 |
| O=C(OCc1cn(CSc2ccccc2)nn1)c1ccccc1 | = | 5.03 |

Data origin: ChEMBL document CHEMBL1687920
